So I've got a bunch of compounds here, and I need their CellTox Green cytotoxicity fluorescence values.
system: Kasumi-1; assay: CellTox Green cytotoxicity fluorescence relative to DMSO vehicle (fold of vehicle RFU); higher = more cell death (loss of membrane integrity), active = 2 or more; conditions: 0.01 µM; 48 h

Prompt line: Reported CellTox Green cytotoxicity fluorescence for O=C(O)C(=O)c1cn(Cc2ccccc2)c2ccc(-c3ccc(OC(F)(F)F)cc3)cc12 [Tiplaxtinin] : what is it?
Response line: 1.01 (inactive)

Prompt line: Bench note: what CellTox Green cytotoxicity fluorescence did CC[C@H](C)[C@@H]([C@@H](CC(=O)N1CCC[C@H]1[C@H](OC)[C@@H](C)C(=O)N[C@H](C)[C@@H](O)c1ccccc1)OC)N(C)C(=O)[C@@H](NC(=O)[C@@H](NC)C(C)C)C(C)C [Monomethyl auristatin E] show?
Response line: 1.27 (inactive)

Prompt line: I would be grateful if you could share the reported CellTox Green cytotoxicity fluorescence for CC1=C(O)C(=O)C=C2C1=CC=C1[C@@]2(C)CC[C@@]2(C)[C@@H]3C[C@](C)(C(=O)O)CC[C@]3(C)CC[C@]12C [Celastrol] .
Response line: 0.923 (inactive)

Prompt line: Returns the measured CellTox Green cytotoxicity fluorescence for the input compound. Input: CN[C@@H]1C[C@H]2O[C@@](C)([C@@H]1OC)n1c3ccccc3c3c4c(c5c6ccccc6n2c5c31)C(=O)NC4 [Staurosporine]
Response line: 1.18 (inactive)

Prompt line: # query: CellTox Green cytotoxicity fluorescence of entry `Cn1c(COP(=O)(NCCBr)NCCBr)cnc1[N+](=O)[O-]`
Response line: 0.968 (inactive)
